# TARGET: PI3K delta (Homo sapiens (Human), UniProt O00329)
# Sequence (O00329 other isoform, or with tags, fused parts or gaps linker GGGGGG): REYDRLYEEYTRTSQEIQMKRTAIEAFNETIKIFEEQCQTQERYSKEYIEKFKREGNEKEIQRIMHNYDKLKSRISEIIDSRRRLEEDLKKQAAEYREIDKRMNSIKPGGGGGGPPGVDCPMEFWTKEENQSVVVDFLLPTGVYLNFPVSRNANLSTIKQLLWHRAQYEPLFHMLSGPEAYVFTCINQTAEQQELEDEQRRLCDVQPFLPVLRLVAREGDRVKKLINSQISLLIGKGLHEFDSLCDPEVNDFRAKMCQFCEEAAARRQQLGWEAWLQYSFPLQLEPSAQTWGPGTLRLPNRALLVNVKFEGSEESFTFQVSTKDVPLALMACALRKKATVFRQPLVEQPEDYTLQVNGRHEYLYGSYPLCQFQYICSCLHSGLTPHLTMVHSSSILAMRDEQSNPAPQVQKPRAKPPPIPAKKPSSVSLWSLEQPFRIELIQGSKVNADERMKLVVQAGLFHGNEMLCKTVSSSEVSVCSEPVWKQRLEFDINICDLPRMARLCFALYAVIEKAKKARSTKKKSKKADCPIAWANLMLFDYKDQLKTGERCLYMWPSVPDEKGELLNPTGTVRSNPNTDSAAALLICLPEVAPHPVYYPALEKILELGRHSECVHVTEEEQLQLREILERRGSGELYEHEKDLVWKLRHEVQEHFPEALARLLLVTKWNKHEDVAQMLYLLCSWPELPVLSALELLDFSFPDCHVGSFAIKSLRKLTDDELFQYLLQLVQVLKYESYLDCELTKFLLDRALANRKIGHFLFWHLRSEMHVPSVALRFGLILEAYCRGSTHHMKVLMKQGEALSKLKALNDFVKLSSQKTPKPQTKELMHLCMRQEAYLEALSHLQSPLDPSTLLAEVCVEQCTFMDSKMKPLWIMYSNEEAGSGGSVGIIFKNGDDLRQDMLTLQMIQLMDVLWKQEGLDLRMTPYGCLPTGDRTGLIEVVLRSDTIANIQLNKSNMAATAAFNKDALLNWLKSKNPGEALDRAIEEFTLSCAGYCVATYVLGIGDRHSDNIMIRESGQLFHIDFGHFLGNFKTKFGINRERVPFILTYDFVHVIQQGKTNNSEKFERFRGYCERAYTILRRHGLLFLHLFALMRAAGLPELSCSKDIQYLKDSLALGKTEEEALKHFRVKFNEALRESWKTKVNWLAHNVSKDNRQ
# MEASUREMENT_PROTOCOL: Enzymatic PI3K delta isoform inhibition (lipid kinase activity, Kinase-Glo luminescence)
# TEST_CONDITIONS: Enzymatic assay
MEASURED_ATTRIBUTE: IC50 (nM)

[a] COc1ncc(N2CCOc3ccc(O[C@H]4CCN(C(=O)C5CCOC5)C4)cc32)cc1C#N (single isomer, unassigned) [Example D29]
[b] COc1ncc(N2CCOc3ccc(O[C@H]4CON(C(=O)c5cn(C)cn5)C4)cc32)cc1C#N
[c] COC(=O)N1CC[C@H](Oc2ccc3c(c2)N(c2cnc(OC)c(C#N)c2)CCO3)C1
// ascending sort on recorded IC50 # format: label list in the order the request specifies
a, c, b
(a: 3 nM, c: 19 nM, b: 28 nM)

---

# TARGET: PI3K alpha (Homo sapiens (Human))
# MEASUREMENT_PROTOCOL: Enzymatic PI3K alpha isoform inhibition (lipid kinase activity, Kinase-Glo luminescence)
# TEST_CONDITIONS: Enzymatic assay
MEASURED_ATTRIBUTE: IC50 (nM)

| MOLECULE | ASSAY_VALUE |
| --- | --- |
| COc1ncc(N2CCOc3ccc(O[C@H]4CCN(C(=O)c5cnn(C)c5)C4)cc32)cc1C#N | 1570 |
| CC(C)S(=O)(=O)c1cncc(N2CCOc3ccc(O[C@H]4CCN(C(=O)C5CCS(=O)(=O)CC5)C4)cc32)c1 | 558 |
| CCC(=O)N1CC[C@H](Oc2ccc3c(c2)N(c2cnc(Cl)c(C)c2)CCO3)C1 | 461 |

[a] Cc1cc(N2CCOc3ccc(O[C@H]4CCN(C(=O)C5CCCCC5)C4)cc32)cnc1S(C)(=O)=O
[b] COc1ncc(N2CCOc3ccc(O[C@H]4CCN(C(=O)c5cnn6cccnc56)C4)cc32)cc1C#N
[c] CCC(=O)N1CC[C@H](Oc2ccc3c(c2)N(c2cnc(OC)c(OC)c2)CCO3)C1
Order the 3 molecules from highest to lowest IC50. # format: label list in the order the request specifies
c, a, b
(c: 1230 nM, a: 450 nM, b: 202 nM)

[I] COc1ncc(N2CCOc3ccc(O[C@H]4CCN(C(=O)CCS(C)(=O)=O)C4)cc32)cc1F
[II] COc1ncc(N2CCOc3ccc(O[C@H]4CCN(C(=O)c5cncnc5)C4)cc32)cc1F
Field: lower recorded IC50 (choose I or II ) Identify your selection by its label.
I
(I: 380 nM, II: 1370 nM)

[1] COc1ncc(N2CCOc3ccc(O[C@H]4CCN(C(=O)c5cn(C)nc5C)C4)cc32)cc1C#N
[2] Cc1cc(N2CCOc3ccc(O[C@H]4CCN(C(=O)C5CCS(=O)(=O)C5)C4)cc32)cnc1S(C)(=O)=O (stereo partly drawn) [Example H2]
[3] CCC(=O)N1C[C@@H](Oc2ccc3c(c2)N(c2cnc(OC)c(C#N)c2)CCO3)CO1
Arrange the 3 entries by IC50 so the values rise. # format: label list in the order the request specifies
1, 2, 3

---

# TARGET: PI3K alpha (Homo sapiens (Human), UniProt P42336)
# Sequence (P42336 other isoform, or with tags, fused parts or gaps): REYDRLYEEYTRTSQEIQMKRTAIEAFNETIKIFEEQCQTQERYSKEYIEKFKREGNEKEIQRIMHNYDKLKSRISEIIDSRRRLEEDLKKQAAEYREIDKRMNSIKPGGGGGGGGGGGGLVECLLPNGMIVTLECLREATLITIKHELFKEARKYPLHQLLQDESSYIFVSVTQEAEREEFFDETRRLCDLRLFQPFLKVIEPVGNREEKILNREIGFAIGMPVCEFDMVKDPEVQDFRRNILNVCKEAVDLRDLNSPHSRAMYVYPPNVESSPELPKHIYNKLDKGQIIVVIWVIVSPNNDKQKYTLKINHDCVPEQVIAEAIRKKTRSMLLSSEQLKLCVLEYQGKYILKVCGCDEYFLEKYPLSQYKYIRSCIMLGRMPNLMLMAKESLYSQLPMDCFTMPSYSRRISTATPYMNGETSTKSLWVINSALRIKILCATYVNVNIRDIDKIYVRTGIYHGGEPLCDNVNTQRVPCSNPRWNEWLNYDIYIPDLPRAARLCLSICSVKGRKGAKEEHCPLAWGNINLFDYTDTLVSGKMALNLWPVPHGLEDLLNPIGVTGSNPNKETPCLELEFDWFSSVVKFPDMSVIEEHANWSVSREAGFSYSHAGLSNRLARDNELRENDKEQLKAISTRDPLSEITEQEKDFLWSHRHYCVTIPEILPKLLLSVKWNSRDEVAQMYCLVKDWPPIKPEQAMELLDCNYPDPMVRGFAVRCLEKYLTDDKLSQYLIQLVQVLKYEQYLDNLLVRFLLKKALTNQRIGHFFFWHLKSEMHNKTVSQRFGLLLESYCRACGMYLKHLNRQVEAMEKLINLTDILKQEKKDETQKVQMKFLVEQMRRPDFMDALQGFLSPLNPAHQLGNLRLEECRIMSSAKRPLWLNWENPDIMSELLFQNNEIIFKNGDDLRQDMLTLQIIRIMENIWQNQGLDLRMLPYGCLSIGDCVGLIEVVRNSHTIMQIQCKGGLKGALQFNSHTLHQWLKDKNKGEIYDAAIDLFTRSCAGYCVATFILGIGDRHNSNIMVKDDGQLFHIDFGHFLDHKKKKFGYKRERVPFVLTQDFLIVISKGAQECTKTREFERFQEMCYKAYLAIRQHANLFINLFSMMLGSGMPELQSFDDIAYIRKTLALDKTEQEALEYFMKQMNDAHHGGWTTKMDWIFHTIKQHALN
# MEASUREMENT_PROTOCOL: Enzymatic PI3K alpha isoform inhibition (lipid kinase activity, Kinase-Glo luminescence)
# TEST_CONDITIONS: Enzymatic assay
pIC50: −log10 of the molar value.
MEASURED_ATTRIBUTE: pIC50

Field: example entries. Status: answers known.
| COMPOUND | ASSAY_VALUE |
| --- | --- |
| COc1ncc(N2CCOc3ccc(O[C@H]4CCN(C(=O)c5ccc(=O)[nH]c5)C4)cc32)cc1C | 6.46 |
| Cc1cc(N2CCOc3cnc(O[C@H]4CCN(C(=O)C5CC5)C4)cc32)cnc1OC(F)F | 6.42 |
| COc1ncc(N2CCOc3ccc(O[C@H]4CCN(C(=O)C5CCS(=O)(=O)C5)C4)cc32)cc1C (single isomer, unassigned) [Example B28] | 6.10 |

[1] CN(C)c1cc(N2CCOc3ccc(O[C@H]4CCN(C(=O)C5CCOCC5)C4)cc32)cnc1S(C)(=O)=O
[2] COc1ncc(N2CCOc3ccc(O[C@H]4CON(C(=O)c5cn(C)cn5)C4)cc32)cc1C#N
[3] COc1ncc(N2CCOc3ccc(O[C@H]4CCN(C(=O)C5CCS(=O)(=O)C5)C4)cc32)cc1Cl (single isomer, unassigned) [Example H13]
Order the 3 compounds from highest to lowest pIC50. # format: label list in the order the request specifies
1, 3, 2

Source of measurements: patent US9539260B2
